TESTED SYSTEM: BK channels, cloned hSlo (α-hSlo and β-bSlo) in CHO cells (Homo sapiens)
Sequence (Q12791 whole entry): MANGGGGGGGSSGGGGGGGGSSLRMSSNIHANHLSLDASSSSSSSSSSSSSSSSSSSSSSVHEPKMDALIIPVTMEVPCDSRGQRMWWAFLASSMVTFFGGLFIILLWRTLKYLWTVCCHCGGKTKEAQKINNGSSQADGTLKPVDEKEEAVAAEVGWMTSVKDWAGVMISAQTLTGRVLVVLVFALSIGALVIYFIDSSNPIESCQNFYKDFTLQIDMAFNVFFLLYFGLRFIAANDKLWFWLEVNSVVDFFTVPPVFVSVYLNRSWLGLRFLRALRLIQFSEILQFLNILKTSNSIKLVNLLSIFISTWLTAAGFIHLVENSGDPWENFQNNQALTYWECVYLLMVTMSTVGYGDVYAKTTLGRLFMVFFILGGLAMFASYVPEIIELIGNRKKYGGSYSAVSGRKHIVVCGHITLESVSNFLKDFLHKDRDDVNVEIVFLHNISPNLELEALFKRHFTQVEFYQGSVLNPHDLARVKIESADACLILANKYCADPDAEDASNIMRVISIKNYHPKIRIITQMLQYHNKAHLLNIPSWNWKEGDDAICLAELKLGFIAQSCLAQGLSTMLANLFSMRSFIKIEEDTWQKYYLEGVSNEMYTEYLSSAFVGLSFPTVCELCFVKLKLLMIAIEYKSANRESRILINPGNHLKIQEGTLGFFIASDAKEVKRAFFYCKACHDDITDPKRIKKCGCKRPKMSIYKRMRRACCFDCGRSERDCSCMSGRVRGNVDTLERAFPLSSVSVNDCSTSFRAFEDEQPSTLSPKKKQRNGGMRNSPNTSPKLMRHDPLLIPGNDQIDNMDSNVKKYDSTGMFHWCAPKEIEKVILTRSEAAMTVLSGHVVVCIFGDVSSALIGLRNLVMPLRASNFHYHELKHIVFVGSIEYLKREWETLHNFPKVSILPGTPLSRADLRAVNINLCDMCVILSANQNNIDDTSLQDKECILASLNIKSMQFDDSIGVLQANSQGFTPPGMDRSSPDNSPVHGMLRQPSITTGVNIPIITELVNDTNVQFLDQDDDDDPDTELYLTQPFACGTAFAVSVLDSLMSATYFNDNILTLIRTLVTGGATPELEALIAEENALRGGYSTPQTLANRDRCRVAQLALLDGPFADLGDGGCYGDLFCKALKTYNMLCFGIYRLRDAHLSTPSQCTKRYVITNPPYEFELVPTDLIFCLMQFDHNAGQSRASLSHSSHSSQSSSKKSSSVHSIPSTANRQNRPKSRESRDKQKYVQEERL
Sequence (Q28067 whole entry partner): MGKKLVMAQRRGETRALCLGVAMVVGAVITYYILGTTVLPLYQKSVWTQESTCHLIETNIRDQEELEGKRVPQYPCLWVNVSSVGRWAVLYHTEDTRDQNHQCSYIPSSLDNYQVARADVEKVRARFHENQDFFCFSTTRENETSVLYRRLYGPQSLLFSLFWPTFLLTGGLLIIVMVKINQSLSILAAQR
PROCEDURE SUMMARY: Em-Assay (voltage sensitive dye DiBAC(4)3 fluorescence, membrane potential)
Type: cell-based
ASSAY SETUP: ratio of the compound effect (50 μM) compared to the maximal effect of NS004 (25 or 50 μM); hSlo transfected CHO cells

MOLECULE	Em effect
FC(F)(F)Oc1cccc(-c2cccc3cc[nH]c23)c1 [Compound 38]	+ (0-1=+)
Clc1ccc(-c2ccc3cc[nH]c3c2)s1 [Compound 13]	+ (0-1=+)

---

TESTED SYSTEM: BK channels, cloned hSlo (α-hSlo and β-bSlo) in CHO cells (Homo sapiens)
PROCEDURE SUMMARY: Em-Assay (voltage sensitive dye DiBAC(4)3 fluorescence, membrane potential)
Type: cell-based
ASSAY SETUP: ratio of the compound effect (50 μM) compared to the maximal effect of NS004 (25 or 50 μM); hSlo transfected CHO cells
MEASUREMENT TYPE: Em effect

MOLECULE	ASSAY VALUE
O=[N+]([O-])c1ccccc1-c1ccc2[nH]ccc2c1 [Compound 33]	+ (0-1=+)
Fc1ccc(-c2cccc3cc[nH]c23)c(F)c1 [Compound 10]	+ (0-1=+)
COc1ccccc1-c1ccc2[nH]ccc2c1 [Compound 5]	++ (>1=++)
COc1ccc(-c2cccc3[nH]ccc23)cc1 [Compound 42]	+ (0-1=+)
Fc1cccc(-c2ccc3cc[nH]c3c2)c1 [Compound 37]	+ (0-1=+)
CS(=O)(=O)c1ccc(-c2ccc3[nH]ccc3c2)cc1 [Compound 29]	+ (0-1=+)
c1cc(-c2ccc3[nH]ccc3c2)c2cc[nH]c2c1 [Compound 47]	+ (0-1=+)
COc1c(C)cc(-c2ccc3[nH]ccc3c2)cc1C [Compound 51]	++ (>1=++)
CN(C)c1ccc(-c2ccc3cc[nH]c3c2)cc1 [Compound 17]	++ (>1=++)
Clc1ccccc1-c1ccc2[nH]ccc2c1 [Compound 30]	++ (>1=++)
c1ccc(COc2ccc(-c3cccc4[nH]ccc34)cc2)cc1 [Compound 36]	+ (0-1=+)
FC(F)(F)Oc1cccc(-c2ccc3[nH]ccc3c2)c1 [Compound 34]	+ (0-1=+)
O=Cc1ccccc1-c1ccc2[nH]ccc2c1 [Compound 31]	+ (0-1=+)
FC(F)(F)c1cc(-c2cccc3[nH]ccc23)cc(C(F)(F)F)c1 [Compound 20]	+ (0-1=+)
CC(C)(C)c1ccc(-c2cccc3[nH]ccc23)cc1 [Compound 39]	++ (>1=++)
Clc1ccc(-c2ccc3[nH]ccc3c2)cc1 [Compound 46]	++ (>1=++)
COc1ccc(-c2ccc3[nH]ccc3c2)c(OC)c1 [Compound 48]	++ (>1=++)
CC(C)(C)c1ccc(-c2ccc3[nH]ccc3c2)cc1 [Compound 32]	+ (0-1=+)
Fc1ccc(-c2cccc3[nH]ccc23)c(F)c1 [Compound 55]	+ (0-1=+)
c1cc2cc(-c3ccc4cc[nH]c4c3)ccc2[nH]1 [Compound 53]	++ (>1=++)
FC(F)(F)Oc1ccc(-c2cccc3[nH]ccc23)cc1 [Compound 28]	+ (0-1=+)
Fc1ccc(-c2ccc3cc[nH]c3c2)c(F)c1 [Compound 16]	+ (0-1=+)
COc1ccccc1-c1cccc2[nH]ccc12 [Compound 24]	+ (0-1=+)
COc1ccc(-c2ccc3[nH]ccc3c2)cc1 [Compound 54]	++ (>1=++)
Clc1ccccc1-c1cccc2[nH]ccc12 [Compound 26]	+ (0-1=+)
FC(F)(F)Oc1ccc(-c2ccc3[nH]ccc3c2)cc1 [Compound 1]	++ (>1=++)
FC(F)(F)c1cc(-c2ccc3cc[nH]c3c2)cc(C(F)(F)F)c1 [Compound 61]	+ (0-1=+)
c1ccc(-c2cccc(-c3ccc4cc[nH]c4c3)c2)cc1 [Compound 60]	+ (0-1=+)
FC(F)(F)c1ccc(-c2ccc3[nH]ccc3c2)cc1 [Compound 4]	++ (>1=++)
CC(=O)c1cccc(-c2ccc3[nH]ccc3c2)c1 [Compound 49]	+ (0-1=+)
c1cc2cc(-c3ccc4[nH]ccc4c3)ccc2[nH]1 [Compound 43]	+ (0-1=+)
COc1ccccc1-c1cccc2cc[nH]c12 [Compound 7]	+ (0-1=+)
Clc1ccccc1-c1ccc2cc[nH]c2c1 [Compound 15]	+ (0-1=+)
Clc1ccc(-c2cccc3cc[nH]c23)s1 [Compound 6]	+ (0-1=+)
COc1ccc(-c2ccc3cc[nH]c3c2)cn1 [Compound 35]	+ (0-1=+)
Clc1ccccc1-c1cccc2cc[nH]c12 [Compound 9]	+ (0-1=+)
CC(C)(C)c1ccc(-c2ccc3cc[nH]c3c2)cc1 [Compound 62]	+ (0-1=+)
